Target: 5-hydroxytryptamine receptor 6 (Homo sapiens)
Sequence (P50406 whole entry): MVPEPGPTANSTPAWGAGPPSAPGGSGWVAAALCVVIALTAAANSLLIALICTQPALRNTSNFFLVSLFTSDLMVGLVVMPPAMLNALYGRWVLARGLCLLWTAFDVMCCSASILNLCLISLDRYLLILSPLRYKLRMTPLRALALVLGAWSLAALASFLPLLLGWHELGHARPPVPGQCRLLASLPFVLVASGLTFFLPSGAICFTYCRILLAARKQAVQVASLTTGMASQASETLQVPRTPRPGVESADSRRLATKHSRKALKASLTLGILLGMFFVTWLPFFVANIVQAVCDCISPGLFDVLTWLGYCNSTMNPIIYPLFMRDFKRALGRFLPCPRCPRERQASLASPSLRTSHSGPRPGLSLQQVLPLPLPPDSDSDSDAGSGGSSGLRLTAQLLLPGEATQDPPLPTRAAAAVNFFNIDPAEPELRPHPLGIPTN
Assay: Binding affinity against h5-HT6 receptor transiently expressed in HEK293 cells
Assay type: cell-based
pKi: −log10 of the molar value.
Listing: pKi of selected molecules
ENDPOINT: pKi

CN1CCC[C@@H]1Cc1c[nH]c2ccccc12
6.19
CN1CCC[C@H]1Cn1cc(Cc2ccccc2)c2ccccc21
7.54
O=S(=O)(c1ccccc1)n1cc(C[C@H]2CCCN2)c2ccccc21
8.11
CN1CCC[C@H]1Cc1cn(S(=O)(=O)c2ccccc2)c2ccccc12
8.77
c1ccc2c(C[C@H]3CCCN3)c[nH]c2c1
7.22
CN1CCC[C@@H]1Cn1cc(Cc2ccccc2)c2ccccc21
8.00
c1ccc2c(C[C@@H]3CCCN3)c[nH]c2c1
5.62
O=S(=O)(c1ccccc1)n1cc(C[C@@H]2CCCN2)c2ccccc21
7.34
CN(C)CCc1cn(S(=O)(=O)c2ccccc2)c2ccccc12
8.40
CN1CCC[C@H]1Cc1c[nH]c2ccccc12
8.04
CN1CCC[C@@H]1Cc1cn(S(=O)(=O)c2ccccc2)c2ccccc12
9.52
